# System: Trichophyton benhamiae
# method_description: Antifungal activity towards Trichophyton mentagrophytes 530324 strain
# Type: functional, Arthroderma benhamiae
experimental_readout: MIC (µg/mL)

Cc1nccn1CC(I)=C(I)I: 6.25
IC#CCn1cncn1: 0.78
O=[N+]([O-])c1cccn1CC#CI: 0.1
IC#CCn1cccn1: 0.39
O=C(O)c1ccc(-c2nnn(CC#CI)n2)cc1: 25

I = COc1ccc(-c2nnn(CC(I)=C(I)I)n2)cc1
II = CCc1nnn(CC(I)=C(I)I)n1
Ask: Higher MIC between I and II ? Mark your answer with the label of the selected entry.
Result: I

1 = IC(I)=C(I)Cn1nnnc1C1CC1
2 = O=[N+]([O-])c1ncnn1CC(I)=C(I)I
3 = CC(C)c1nnnn1CC(I)=C(I)I
Ask: Rank by MIC (largest to smallest). Put the labels in the order asked and list them.
Result: 3, 1, 2

1 = CC(C)(C)c1nnn(CC#CI)n1
2 = IC(I)=C(I)Cn1ncnn1
3 = Cc1cncn1CC(I)=C(I)I
4 = O=[N+]([O-])c1ncnn1CC#CI
Ask: Ordering: ascending MIC. # respond with the labels, arranged in the requested order
Result: 2, 4, 1, 3
